Test system: HT-29
Assay: Cytotoxicity against human HT-29 cells after 48 hrs by MTT assay
Assay type: functional, cell-based
Details: HT-29, 48 h
Assign pIC50 to each entry below.
Please note pIC50 is a logarithmic value: minus log10 of concentration in mol/L. Answer with that number alone.

## Input Dear colleague, I am looking for the recorded pIC50 of the following molecule: `COc1cc([C@@H]2c3cc4c(cc3[C@@H](NC(=O)c3cc5c([nH]c6ccccc65)c(-c5ccc(F)c(F)c5)n3)[C@H]3COC(=O)[C@H]23)OCO4)cc(OC)c1OC`
## Output 5.45

## Input Recorded pIC50 of COc1cc([C@@H]2c3cc4c(cc3[C@@H](O[C@@H]3O[C@@H]5CO[C@@H](C)O[C@H]5[C@H](O)[C@H]3O)[C@H]3COC(=O)[C@H]23)OCO4)cc(OC)c1O [ETOPOSIDE] , please.
## Output 5.79

## Input Recorded pIC50 of `COc1cc([C@@H]2c3cc4c(cc3[C@@H](NC(=O)c3cc5c([nH]c6ccccc65)c(-c5ccc(F)cc5)n3)[C@H]3COC(=O)[C@H]23)OCO4)cc(OC)c1OC` , please.
## Output 4.94
